- experimental.details: Antiproliferative activity against patient derived human Primary acute myeloid leukemic cell assessed as inhibition of cell growth incubated for 72 hrs by CCK-8 assay
- Format: functional, cell-based
pIC50: −log10 of the molar value.
observation.type: pIC50

[
  {
    "structure.smiles": "C=CCn1c(=O)c2cnc(Nc3ccc(N4CCN(CCCNC(=O)c5noc(-c6cc(C(C)C)c(O)cc6O)c5-c5ccc(CN6CCOCC6)cc5)CC4)cc3)nc2n1-c1cccc(C(C)(C)O)n1",
    "quantitative.result": 7.39
  }
]
